Test system: rabbit anti-SDMA antibody in serum, Rabbit # 156 (SDMA-BSA immunogen)
protocolSummary: Competitive ELISA, specificity of rabbit anti-SDMA antiserum, Rabbit #156
Format: binding
testContext: Rabbit # 156 antiserum (1:20K); IC50 of SDMA / IC50 of competitor x 100
Measured % Cross Reactivity, listed per entry.

Example results:
{"molecule": "N=C(N)NCCC[C@H](N)C(=O)O", "testResult": "<1%"}
{"molecule": "C/N=C(\\NC)NCCCC(N)C(=O)O (stereo not shown)", "testResult": "100%"}
{"molecule": "CN(C)C(=N)NCCCC(N)C(=O)O (stereo not shown)", "testResult": "<1%"}

// below: % Cross Reactivity requested for another molecule
Task item: Give % Cross Reactivity only, for CNC(=N)NCCCC(N)C(=O)O (stereo not shown) , using rabbit anti-SDMA antibody in serum, Rabbit # 156 (SDMA-BSA immunogen) data.
Reply: <1%

Numbers sourced from patent US20250271442A1.
